Quick list: fold change of affinity per entry.
- targetEntity: T1, Human CD137 ECD (human)
- T1 construct: entry includes C-terminal His-tag and biotin acceptor peptide; also called human CD137 extracellular domain; 4-1BB
- T1 sequence (chain, as listed by the source limits assumed): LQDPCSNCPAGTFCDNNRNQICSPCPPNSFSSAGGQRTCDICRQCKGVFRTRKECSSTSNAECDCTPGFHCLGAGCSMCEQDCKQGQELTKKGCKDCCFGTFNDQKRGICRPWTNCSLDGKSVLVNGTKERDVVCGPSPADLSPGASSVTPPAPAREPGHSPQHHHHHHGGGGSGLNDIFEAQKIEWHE
- procedureSummary: Biacore SPR, vs parent H183/L072
measuredParameter: fold change of affinity (fold)

[
  {
    "binder": "H183/L072 VL Q90S (antibody, name in Kabat numbering, V domains shown, Dual-Ig) VH: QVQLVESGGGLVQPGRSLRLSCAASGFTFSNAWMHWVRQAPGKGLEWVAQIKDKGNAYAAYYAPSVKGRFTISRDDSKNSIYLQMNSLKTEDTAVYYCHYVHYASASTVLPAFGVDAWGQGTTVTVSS VL: DIVMTQSPLSLPVTPGEPASISCQASQELVHMNRNTYLHWYQQKPGQAPRLLIYKVSNRFPGVPDRFSGSGSGTDFTLKISRVEAEDVGVYYCASGTSVPFTFGQGTKLEIK",
    "testResult": 0
  },
  {
    "binder": "H183/L072 VL H34L (antibody, name in Kabat numbering, V domains shown, Dual-Ig) VH: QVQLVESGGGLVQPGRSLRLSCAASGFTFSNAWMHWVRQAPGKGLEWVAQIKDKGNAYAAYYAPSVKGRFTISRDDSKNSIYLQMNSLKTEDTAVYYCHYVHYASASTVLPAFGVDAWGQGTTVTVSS VL: DIVMTQSPLSLPVTPGEPASISCQASQELVHMNRNTYLLWYQQKPGQAPRLLIYKVSNRFPGVPDRFSGSGSGTDFTLKISRVEAEDVGVYYCAQGTSVPFTFGQGTKLEIK",
    "testResult": 0.1
  },
  {
    "binder": "H183/L072 VL Q27W (antibody, name in Kabat numbering, V domains shown, Dual-Ig) VH: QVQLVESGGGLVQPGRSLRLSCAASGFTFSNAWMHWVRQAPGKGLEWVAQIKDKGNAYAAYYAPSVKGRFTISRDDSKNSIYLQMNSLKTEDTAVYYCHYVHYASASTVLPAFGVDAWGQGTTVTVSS VL: DIVMTQSPLSLPVTPGEPASISCQASWELVHMNRNTYLHWYQQKPGQAPRLLIYKVSNRFPGVPDRFSGSGSGTDFTLKISRVEAEDVGVYYCAQGTSVPFTFGQGTKLEIK",
    "testResult": 0.5
  }
]
